// provenance: paper PMC8000840

Assay: Oral pharmacokinetics study
Type: in vivo, Sprague–Dawley (SD) rats
Conditions: Sprague-Dawley, rat, plasma; SD rats, oral gavage 100 mg/kg
test.readout: Tmax
Be sure to follow the number with its unit.

Name the reported Tmax value associated with the compound `O=C(Nc1cc(Cl)c(Cl)c(Cl)c1)c1ccccc1NS(=O)(=O)c1cccc([N+](=O)[O-])c1`
3.43 h

* * *

Test: Oral pharmacokinetics study
Assay type: in vivo, Sprague–Dawley (SD) rats
Conditions: Sprague-Dawley, rat, plasma; SD rats, oral gavage 100 mg/kg; read-out: AUC0≈12 h
test.readout: AUC (ng·h/mL)
Answers are plain numbers, in ng·h/mL.

If you can, please state the reported AUC value of `O=C(Nc1cc(Cl)c(Cl)c(Cl)c1)c1ccccc1NS(=O)(=O)c1cccc([N+](=O)[O-])c1` .
1240

* * *

Assay: Oral pharmacokinetics study
Type: in vivo, Sprague–Dawley (SD) rats
Details: Sprague-Dawley, rat, plasma; SD rats, oral gavage 100 mg/kg, in 0.5% CMC-Na
test.readout: Cmax (ng/mL)
Give bare numbers, in ng/mL.

For `O=C(Nc1cc(Cl)c(Cl)c(Cl)c1)c1ccccc1NS(=O)(=O)c1cccc([N+](=O)[O-])c1` , what is its reported Cmax?
180

* * *

Experiment: Oral pharmacokinetics study
Type: in vivo, Sprague–Dawley (SD) rats
Details: Sprague-Dawley, rat, plasma; SD rats, oral gavage 100 mg/kg; read-out: MRT0≈12 h
test.readout: MRT (h)
Numbers only, in h.

Looking for the measured MRT of `O=C(Nc1cc(Cl)c(Cl)c(Cl)c1)c1ccccc1NS(=O)(=O)c1cccc([N+](=O)[O-])c1` , can you help?
5.18
